# ASSAYED TARGET: RARβ (Homo sapiens, UniProt P10826)
# Sequence (P10826 1-448 isoform P10826-2): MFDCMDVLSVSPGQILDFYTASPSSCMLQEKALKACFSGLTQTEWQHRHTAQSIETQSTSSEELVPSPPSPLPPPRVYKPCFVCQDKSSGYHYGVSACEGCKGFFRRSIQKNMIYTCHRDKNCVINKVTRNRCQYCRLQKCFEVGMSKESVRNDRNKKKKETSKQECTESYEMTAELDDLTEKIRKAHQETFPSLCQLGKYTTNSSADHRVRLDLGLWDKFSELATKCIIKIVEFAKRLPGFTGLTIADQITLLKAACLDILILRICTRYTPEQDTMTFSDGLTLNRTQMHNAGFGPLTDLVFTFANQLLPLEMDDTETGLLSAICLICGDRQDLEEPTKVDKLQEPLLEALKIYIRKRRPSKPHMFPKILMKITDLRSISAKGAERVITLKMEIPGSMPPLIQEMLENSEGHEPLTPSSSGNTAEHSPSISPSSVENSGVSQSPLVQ
pKd: −log10 of the molar value.
EXPERIMENTAL ENDPOINT: pKd

Give recorded pKd with RARβ (Homo sapiens, UniProt P10826) for the following molecule: Cc1cc2c(cc1Sc1ncc(C(=O)O)s1)C(C)(C)CCC2(C)C
< 6.00

----------
# ASSAYED TARGET: RXRα (Homo sapiens)
# Construct: expressed in transfected cells; host or cells: CV1
# Sequence (P19793 whole entry): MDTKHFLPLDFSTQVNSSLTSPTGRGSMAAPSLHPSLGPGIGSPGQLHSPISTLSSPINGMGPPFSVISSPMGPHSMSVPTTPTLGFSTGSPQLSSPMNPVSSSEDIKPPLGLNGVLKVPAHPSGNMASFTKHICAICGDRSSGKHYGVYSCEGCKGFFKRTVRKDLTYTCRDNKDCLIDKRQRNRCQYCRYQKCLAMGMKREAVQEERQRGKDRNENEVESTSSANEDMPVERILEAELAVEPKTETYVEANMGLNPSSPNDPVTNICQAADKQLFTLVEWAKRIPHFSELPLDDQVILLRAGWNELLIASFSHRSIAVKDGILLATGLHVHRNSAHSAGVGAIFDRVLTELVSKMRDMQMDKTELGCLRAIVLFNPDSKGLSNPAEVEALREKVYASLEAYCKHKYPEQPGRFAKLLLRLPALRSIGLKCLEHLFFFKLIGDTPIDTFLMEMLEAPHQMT
# TEST METHOD NOTES: Holoreceptor transactivation assay, RXRα
# Format: cell-based
# CONDITIONS USED: CV-1; CV1 cells; relative to all trans retinoic acid; read-out: Transactivation Assay Efficacy (% of RA activity), RXRα
Classification field: enter yes (1) for Emax values not below 80%, no (0) for values below it.

Below are worked cases with known answers.
CC1(C)CCC(C)(C)c2cc(Sc3ccc(C(=O)O)cc3)ccc21 ... no (0)
Cc1cc2c(cc1Sc1ccc(C(=O)O)cn1)C(C)(C)CCC2(C)C ... yes (1)
Cc1cc2c(cc1S(=O)(=O)c1ccc(C(=O)O)cc1)C(C)(C)CCC2(C)C ... no (0)

Test whether the compound Cc1cc2c(cc1Sc1ncc(C(=O)O)s1)C(C)(C)CCC2(C)C records Emax of 80% or higher.
yes (1)

Does the reported Emax for CC1(C)CCC(C)(C)c2cc(S(=O)(=O)c3ccc(C(=O)O)cc3)ccc21 fall at or above the 80% mark?
no (0)

----------
# ASSAYED TARGET: RXRβ (Mus musculus, UniProt P28704)
# Sequence (P28704 1-520): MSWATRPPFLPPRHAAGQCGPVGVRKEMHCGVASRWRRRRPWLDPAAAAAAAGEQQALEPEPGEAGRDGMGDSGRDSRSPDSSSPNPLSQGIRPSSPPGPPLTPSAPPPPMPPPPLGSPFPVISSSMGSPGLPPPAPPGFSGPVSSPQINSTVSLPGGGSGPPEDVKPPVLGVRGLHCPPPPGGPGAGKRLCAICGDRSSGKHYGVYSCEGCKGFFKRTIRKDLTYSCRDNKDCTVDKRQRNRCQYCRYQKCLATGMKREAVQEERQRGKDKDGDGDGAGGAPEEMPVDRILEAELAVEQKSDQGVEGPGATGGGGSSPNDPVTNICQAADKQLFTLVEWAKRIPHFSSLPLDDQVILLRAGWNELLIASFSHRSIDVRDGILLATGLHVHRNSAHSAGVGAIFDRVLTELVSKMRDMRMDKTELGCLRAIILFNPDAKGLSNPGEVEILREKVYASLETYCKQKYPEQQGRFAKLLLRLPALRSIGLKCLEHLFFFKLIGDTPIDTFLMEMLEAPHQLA
# TEST METHOD NOTES: Holoreceptor transactivation assay, RXRβ
# CONDITIONS USED: CV1 cells, 36 hours
Catalogue of compounds with associated pEC50
Scale note: pEC50 = -log10(concentration in M).

CC1(C)CCC(C)(C)c2cc(Sc3ccc(C(=O)O)cc3)ccc21 [Compound 2] ... 5.80
Cc1cc2c(cc1Sc1ncc(C(=O)O)s1)C(C)(C)CCC2(C)C [Compound 15] ... 5.89

Next item in the queue.
Which value of pEC50 has been reported for Cc1cc2c(cc1Sc1ccc(C(=O)O)cc1)C(C)(C)CCC2(C)C [Compound 7] in the records?
6.49
